B1: WDFY1 (parent)
chain: FWNIKQMWDTKTLGLRQHHCRKCG

Variants of: B1
Assay: protein stability index of a GFP-peptide fusion (GPS, HEK-293T) (PSI 1-6); higher = more stable;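 further: lentivirally expressed fusions sorted by FACS into six bins by GFP to DsRed ratio, PSI derived from sequencing read proportions per bin multiplied by bin number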
Details: c terminus: a fixed tail appended
measurement-kind: protein stability index
Answers are plain numbers.

Answered cases to consult:
1) N3T :: 1.23
2) H19G :: 1.63
3) H19C :: 2.14
4) T12Q :: 2.39
5) H18M :: 2.27
6) G24W :: 2.12

Could you report protein stability index for every entry in the following list?
1. F1A
2. H18I
3. K5Y

2.11
2.01
1.36

Could you report protein stability index for every entry in the following list?
1. D9A
2. W2H
3. I4A
4. L13E
5. K5S

[1.98, 1.43, 1.89, 2.56, 1.72]
